Every entry's value here was drawn from patent US20220402995A1.

target: T1, VLP2 (virus-like particles of AAV2) (AAV2, UniProt P03135 1-735; P03135 1-598; P03135 1-533)
T1 construct: Empty AAV2 capsid; background says about 60 protein molecules, VP1:VP2:VP3 = 1:1:10; Immobilised on the ELISA plate
T1 sequence (P03135 whole entry, chain 1 of 3): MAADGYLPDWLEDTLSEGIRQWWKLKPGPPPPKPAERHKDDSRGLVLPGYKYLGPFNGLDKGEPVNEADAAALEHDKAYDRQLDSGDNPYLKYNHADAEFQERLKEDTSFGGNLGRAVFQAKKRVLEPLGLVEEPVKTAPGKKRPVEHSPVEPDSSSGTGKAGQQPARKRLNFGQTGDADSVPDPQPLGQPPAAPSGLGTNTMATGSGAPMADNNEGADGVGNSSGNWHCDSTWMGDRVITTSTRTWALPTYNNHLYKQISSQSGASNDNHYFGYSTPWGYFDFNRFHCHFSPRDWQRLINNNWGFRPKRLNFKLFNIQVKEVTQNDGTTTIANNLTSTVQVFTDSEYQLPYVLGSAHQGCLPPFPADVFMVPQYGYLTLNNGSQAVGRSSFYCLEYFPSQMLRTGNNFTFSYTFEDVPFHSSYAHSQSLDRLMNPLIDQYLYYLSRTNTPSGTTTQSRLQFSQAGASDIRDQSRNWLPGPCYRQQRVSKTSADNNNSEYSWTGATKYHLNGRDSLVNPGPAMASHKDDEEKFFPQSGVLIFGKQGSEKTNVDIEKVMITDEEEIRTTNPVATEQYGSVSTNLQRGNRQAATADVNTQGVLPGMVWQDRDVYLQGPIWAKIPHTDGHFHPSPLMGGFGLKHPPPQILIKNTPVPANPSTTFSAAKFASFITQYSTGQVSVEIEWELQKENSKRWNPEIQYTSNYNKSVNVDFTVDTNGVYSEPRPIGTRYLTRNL
T1 sequence (P03135 139-735, tags left off, chain 2 of 3): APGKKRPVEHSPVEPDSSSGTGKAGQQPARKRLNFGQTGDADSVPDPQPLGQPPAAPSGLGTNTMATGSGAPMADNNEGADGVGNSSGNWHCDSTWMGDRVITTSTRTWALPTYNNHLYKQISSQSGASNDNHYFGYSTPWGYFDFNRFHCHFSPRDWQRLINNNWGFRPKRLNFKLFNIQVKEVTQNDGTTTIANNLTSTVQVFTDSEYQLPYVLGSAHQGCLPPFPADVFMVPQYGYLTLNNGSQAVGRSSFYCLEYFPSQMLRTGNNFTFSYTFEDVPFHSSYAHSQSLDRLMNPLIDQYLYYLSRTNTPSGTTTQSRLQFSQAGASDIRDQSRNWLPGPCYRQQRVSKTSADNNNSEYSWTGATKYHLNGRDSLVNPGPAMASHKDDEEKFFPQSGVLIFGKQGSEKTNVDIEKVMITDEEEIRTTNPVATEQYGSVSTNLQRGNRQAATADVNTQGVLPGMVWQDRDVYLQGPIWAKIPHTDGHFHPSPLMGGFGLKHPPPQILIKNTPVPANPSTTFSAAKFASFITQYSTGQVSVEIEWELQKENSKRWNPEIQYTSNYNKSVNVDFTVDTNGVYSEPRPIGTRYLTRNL
T1 sequence (P03135 203-735, chain 3 of 3): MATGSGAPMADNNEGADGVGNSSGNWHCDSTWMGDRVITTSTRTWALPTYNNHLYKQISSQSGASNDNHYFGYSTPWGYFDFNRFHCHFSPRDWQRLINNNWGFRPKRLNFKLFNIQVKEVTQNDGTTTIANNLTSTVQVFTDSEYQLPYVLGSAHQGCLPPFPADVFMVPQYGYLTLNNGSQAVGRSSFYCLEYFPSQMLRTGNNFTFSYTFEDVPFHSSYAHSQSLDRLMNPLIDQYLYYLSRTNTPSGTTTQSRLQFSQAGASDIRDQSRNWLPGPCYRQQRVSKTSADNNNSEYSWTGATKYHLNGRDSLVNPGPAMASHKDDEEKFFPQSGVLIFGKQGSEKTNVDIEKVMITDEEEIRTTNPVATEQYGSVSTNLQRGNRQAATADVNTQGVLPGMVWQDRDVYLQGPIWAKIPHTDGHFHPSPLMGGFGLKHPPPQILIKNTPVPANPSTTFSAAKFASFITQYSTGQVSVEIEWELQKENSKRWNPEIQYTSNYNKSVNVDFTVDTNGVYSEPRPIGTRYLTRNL
experiment_notes: ELISA on VLP2; binding after pH 10.0 41.2°C 15 min / untreated
Would you mind telling me the reported Residual activity [%] of each entry?
Write it as a number; the unit % goes unstated.

Need Residual activity [%] of AAV-binding protein No. 105 (AVR8g + Arg353Cys) (receptor) MGSAGESDQITLPKNEVQLNAYVLQEPPKGETCTYDWQLITHPCDYSGEMEGEHSQILKLSNLTPGLYEFKVIVEGQNAHSEGYVNVTVEPEPRKNRPPIAIVSPQFQEISLPTTSTVIDGSQSTDDDKIVQYHWEELKGPLREEKISEDTAILKLSKLVPGNYTFRLTVVDSDGATDSTTANLTVNKAVDHHHHHH , thanks.
62.1

Need Residual activity [%] of AAV-binding protein No. 103 (AVR8g + Glu340Val) (receptor) MGSAGESDQITLPKNEVQLNAYVLQEPPKGVTCTYDWQLITHPRDYSGEMEGEHSQILKLSNLTPGLYEFKVIVEGQNAHSEGYVNVTVEPEPRKNRPPIAIVSPQFQEISLPTTSTVIDGSQSTDDDKIVQYHWEELKGPLREEKISEDTAILKLSKLVPGNYTFRLTVVDSDGATDSTTANLTVNKAVDHHHHHH , thanks.
35
